run.description: Inhibition of refolded rhodanese reporter enzyme (unknown origin)
Set-up: species or system Homo sapiens
// values below are reported IC50

Guide cases for IC50, answers given:
{"compound": "O=C(/C=C/c1cccc([N+](=O)[O-])c1)c1ccc(NC(=O)c2cccs2)cc1", "measured.result": "> 100 µM"}
{"compound": "OC(/C=C/c1ccccc1)c1ccccc1 (stereo unspecified)", "measured.result": "> 100 µM"}
{"compound": "COc1ccc(/C=C/C(=O)c2ccccc2)cc1", "measured.result": "> 100 µM"}
{"compound": "O=C(/C=C/c1ccc([N+](=O)[O-])cc1)c1ccc(O)c(O)c1", "measured.result": "45 µM"}
{"compound": "O=C(/C=C/c1ccco1)c1ccc(NC(=O)c2cccs2)cc1", "measured.result": "> 100 µM"}

Looking up `O=C(/C=C/c1ccco1)c1ccc(NC(=O)c2ccccc2)cc1` , I found its IC50 recorded as > 100 µM
